Parameter MIC: see the listing below.
Tested on: Pseudomonas aeruginosa (PA) ATCC 39327
Type: cell-based
STUDY_CONDITIONS: ATCC 39327
Procedure: All of the bacterial species were grown overnight at 37 °C in LB broth. 10^7 CFU/mL of cells were resuspended in fresh culture and grown until the mid log phase. , The bacterial cells were adjusted to a concentration of 5 × 10^5 CFU/mL to quantify the MIC. […] The MIC was taken as the lowest peptide concentration at which observable bacteria growth was inhibited, as measured by a microplate reader (Biotek Synergy H1 microplate reader). […]
MEASURED_PROPERTY: MIC (µM)

[[record]]
entry_smiles = "CC[C@H](C)[C@H](N)C(=O)N[C@@H](CC(C)C)C(=O)N[C@H](C(=O)N[C@@H](Cc1c[nH]c2ccccc12)C(=O)N[C@@H](CCCCN)C(=O)N[C@@H](Cc1c[nH]c2ccccc12)C(=O)N1CCC[C@H]1C(=O)N[C@@H](Cc1c[nH]c2ccccc12)C(=O)N[C@@H](Cc1c[nH]c2ccccc12)C(=O)N1CCC[C@H]1C(=O)N[C@@H](Cc1c[nH]c2ccccc12)C(=O)N[C@@H](CCCNC(=N)N)C(=O)N[C@@H](CCCNC(=N)N)C(=O)O)C(C)C"
measured_property = "MIC"
obs_value = 7.8

[[record]]
entry_smiles = "CC[C@H](C)[C@H](N)C(=O)N[C@@H](CC(C)C)C(=O)N1CCC[C@H]1C(=O)N[C@@H](Cc1ccccc1)C(=O)N[C@@H](CCCCN)C(=O)N[C@@H](Cc1c[nH]c2ccccc12)C(=O)N1CCC[C@H]1C(=O)N[C@@H](Cc1c[nH]c2ccccc12)C(=O)N[C@@H](Cc1c[nH]c2ccccc12)C(=O)N1CCC[C@H]1C(=O)N[C@@H](Cc1c[nH]c2ccccc12)C(=O)N[C@@H](CCCNC(=N)N)C(=O)N[C@@H](CCCNC(=N)N)C(=O)O"
measured_property = "MIC"
obs_value = 1.9

[[record]]
entry_smiles = "CC[C@H](C)[C@H](N)C(=O)N[C@H](C(=O)N1CCC[C@H]1C(=O)N[C@@H](Cc1c[nH]c2ccccc12)C(=O)N[C@@H](CCCCN)C(=O)N[C@@H](Cc1c[nH]c2ccccc12)C(=O)N1CCC[C@H]1C(=O)N[C@@H](Cc1c[nH]c2ccccc12)C(=O)N[C@@H](Cc1c[nH]c2ccccc12)C(=O)N1CCC[C@H]1C(=O)N[C@@H](Cc1c[nH]c2ccccc12)C(=O)N[C@@H](CCCNC(=N)N)C(=O)N[C@@H](CCCNC(=N)N)C(=O)O)[C@@H](C)CC"
measured_property = "MIC"
obs_value = 7.8

[[record]]
entry_smiles = "CC[C@H](C)[C@H](N)C(=O)N[C@@H](CC(C)C)C(=O)N[C@@H](Cc1ccc(O)cc1)C(=O)N[C@@H](Cc1c[nH]c2ccccc12)C(=O)N[C@@H](CCCCN)C(=O)N[C@@H](Cc1c[nH]c2ccccc12)C(=O)N1CCC[C@H]1C(=O)N[C@@H](Cc1c[nH]c2ccccc12)C(=O)N[C@@H](Cc1c[nH]c2ccccc12)C(=O)N1CCC[C@H]1C(=O)N[C@@H](Cc1c[nH]c2ccccc12)C(=O)N[C@@H](CCCNC(=N)N)C(=O)N[C@@H](CCCNC(=N)N)C(=O)O"
measured_property = "MIC"
obs_value = 3.8


----------
Test system: Sphingomonas paucimobilis (SP)
Type: cell-based
Where no end group is shown, it is not given here.
Parameter MIC: see the listing below.
MEASURED_PROPERTY: MIC (µM)

[[record]]
sequence_text = "ILPWKWPWWPFRR [P4]"
assayed_target = "Sphingomonas paucimobilis (SP)"
obs_value = 0.9

[[record]]
sequence_text = "ILPWKWVWWPWRR [P8]"
assayed_target = "Sphingomonas paucimobilis (SP)"
obs_value = 3.91

[[record]]
sequence_text = "ILPWKWPWFPWRR [P6]"
assayed_target = "Sphingomonas paucimobilis (SP)"
obs_value = 15.625

[[record]]
sequence_text = "ILPWKFPWWPWRR [P9]"
assayed_target = "Sphingomonas paucimobilis (SP)"
obs_value = 7.8

[[record]]
sequence_text = "ILPWKWPWWVWRR [P5]"
assayed_target = "Sphingomonas paucimobilis (SP)"
obs_value = 0.9

[[record]]
sequence_text = "ILPWKWPFWPWRR [P7]"
assayed_target = "Sphingomonas paucimobilis (SP)"
obs_value = 0.9

[[record]]
sequence_text = "ILPWKWPWWPWRK [P2]"
assayed_target = "Sphingomonas paucimobilis (SP)"
obs_value = 0.9


----------
Tested on: Hormoconis resinae (HR) ATCC 20267
Type: cell-based
Where no end group is shown, it is not given here.
MEASURED_PROPERTY: MIC (µM)

[[record]]
sequence_text = "ILPWKWVWWPWRR [P8]"
obs_value = 31.25

[[record]]
sequence_text = "ILPWKWPFWPWRR [P7]"
obs_value = 1.95

[[record]]
sequence_text = "ILPWKWPWFPWRR [P6]"
obs_value = 0.9

[[record]]
sequence_text = "ILPWKWPWWVWRR [P5]"
obs_value = 62.5


----------
EXPERIMENT: HPLC retention time as a function of peptide hydrophobicity
Type: physicochemical
STUDY_CONDITIONS: chromatographic, Polaris 5 C18-A reverse phase, 0.1% TFA water / 0.1% TFA acetonitrile gradient, 30 min, 300 μM peptide
Parameter R t, retention time of peptide on HPLC column as a function of peptide hydrophobicity: see the listing below.
MEASURED_PROPERTY: R t, retention time of peptide on HPLC column as a function of peptide hydrophobicity (min)

[[record]]
compound = "CC[C@H](C)[C@H](N)C(=O)N[C@@H](CC(C)C)C(=O)N[C@@H](CC(C)C)C(=O)N[C@@H](Cc1c[nH]c2ccccc12)C(=O)N[C@@H](CCCCN)C(=O)N[C@@H](Cc1c[nH]c2ccccc12)C(=O)N1CCC[C@H]1C(=O)N[C@@H](Cc1c[nH]c2ccccc12)C(=O)N[C@@H](Cc1c[nH]c2ccccc12)C(=O)N1CCC[C@H]1C(=O)N[C@@H](Cc1c[nH]c2ccccc12)C(=O)N[C@@H](CCCNC(=N)N)C(=O)N[C@@H](CCCNC(=N)N)C(=O)O [P19]"
obs_value = 13.667

[[record]]
compound = "CC[C@H](C)[C@H](N)C(=O)N[C@@H](CC(C)C)C(=O)N[C@@H](Cc1ccccc1)C(=O)N[C@@H](Cc1c[nH]c2ccccc12)C(=O)N[C@@H](CCCCN)C(=O)N[C@@H](Cc1c[nH]c2ccccc12)C(=O)N1CCC[C@H]1C(=O)N[C@@H](Cc1c[nH]c2ccccc12)C(=O)N[C@@H](Cc1c[nH]c2ccccc12)C(=O)N1CCC[C@H]1C(=O)N[C@@H](Cc1c[nH]c2ccccc12)C(=O)N[C@@H](CCCNC(=N)N)C(=O)N[C@@H](CCCNC(=N)N)C(=O)O [P16]"
obs_value = 14.075

[[record]]
compound = "CC[C@H](C)[C@H](N)C(=O)N[C@@H](CC(C)C)C(=O)N[C@@H](Cc1c[nH]c2ccccc12)C(=O)N[C@@H](Cc1c[nH]c2ccccc12)C(=O)N[C@@H](CCCCN)C(=O)N[C@@H](Cc1c[nH]c2ccccc12)C(=O)N1CCC[C@H]1C(=O)N[C@@H](Cc1c[nH]c2ccccc12)C(=O)N[C@@H](Cc1c[nH]c2ccccc12)C(=O)N1CCC[C@H]1C(=O)N[C@@H](Cc1c[nH]c2ccccc12)C(=O)N[C@@H](CCCNC(=N)N)C(=O)N[C@@H](CCCNC(=N)N)C(=O)O [P15]"
obs_value = 14.327

[[record]]
compound = "CC[C@H](C)[C@H](N)C(=O)N[C@@H](CC(C)C)C(=O)N[C@H](C(=O)N[C@@H](Cc1c[nH]c2ccccc12)C(=O)N[C@@H](CCCCN)C(=O)N[C@@H](Cc1c[nH]c2ccccc12)C(=O)N1CCC[C@H]1C(=O)N[C@@H](Cc1c[nH]c2ccccc12)C(=O)N[C@@H](Cc1c[nH]c2ccccc12)C(=O)N1CCC[C@H]1C(=O)N[C@@H](Cc1c[nH]c2ccccc12)C(=O)N[C@@H](CCCNC(=N)N)C(=O)N[C@@H](CCCNC(=N)N)C(=O)O)[C@@H](C)CC [P18]"
obs_value = 13.314

[[record]]
compound = "CC(C)C[C@H](NC(=O)[C@@H](N)Cc1ccc(O)cc1)C(=O)N1CCC[C@H]1C(=O)N[C@@H](Cc1c[nH]c2ccccc12)C(=O)N[C@@H](CCCCN)C(=O)N[C@@H](Cc1c[nH]c2ccccc12)C(=O)N1CCC[C@H]1C(=O)N[C@@H](Cc1c[nH]c2ccccc12)C(=O)N[C@@H](Cc1c[nH]c2ccccc12)C(=O)N1CCC[C@H]1C(=O)N[C@@H](Cc1c[nH]c2ccccc12)C(=O)N[C@@H](CCCNC(=N)N)C(=O)N[C@@H](CCCNC(=N)N)C(=O)O [P14]"
obs_value = 12.279

[[record]]
compound = "CC[C@H](C)[C@H](N)C(=O)N[C@H](C(=O)N1CCC[C@H]1C(=O)N[C@@H](Cc1c[nH]c2ccccc12)C(=O)N[C@@H](CCCCN)C(=O)N[C@@H](Cc1c[nH]c2ccccc12)C(=O)N1CCC[C@H]1C(=O)N[C@@H](Cc1c[nH]c2ccccc12)C(=O)N[C@@H](Cc1c[nH]c2ccccc12)C(=O)N1CCC[C@H]1C(=O)N[C@@H](Cc1c[nH]c2ccccc12)C(=O)N[C@@H](CCCNC(=N)N)C(=O)N[C@@H](CCCNC(=N)N)C(=O)O)[C@@H](C)CC [P13]"
obs_value = 12.084

[[record]]
compound = "CC[C@H](C)[C@H](N)C(=O)N[C@@H](CC(C)C)C(=O)N[C@H](C(=O)N[C@@H](Cc1c[nH]c2ccccc12)C(=O)N[C@@H](CCCCN)C(=O)N[C@@H](Cc1c[nH]c2ccccc12)C(=O)N1CCC[C@H]1C(=O)N[C@@H](Cc1c[nH]c2ccccc12)C(=O)N[C@@H](Cc1c[nH]c2ccccc12)C(=O)N1CCC[C@H]1C(=O)N[C@@H](Cc1c[nH]c2ccccc12)C(=O)N[C@@H](CCCNC(=N)N)C(=O)N[C@@H](CCCNC(=N)N)C(=O)O)C(C)C [P12]"
obs_value = 12.903

